// data source = patent US9896443B2

attributeMeasured: melting point

CN1Cc2cc(-c3ccc(-c4cncc(NS(=O)(=O)c5ccccc5Br)c4)s3)ccc2C1=O :: 289 to 293 °C
CN1Cc2cc(-c3ccc(-c4cncc(NC(=O)c5ccc(F)cc5F)c4)s3)ccc2C1=O :: 267 to 269 °C
CN1Cc2cc(-c3ccc(-c4cncc(NS(=O)(=O)c5ccccc5OC(F)(F)F)c4)s3)ccc2C1=O :: 251 to 254 °C
CN1Cc2cc(-c3ccc(-c4cncc(NS(=O)(=O)c5ccc(C(F)(F)F)cc5Cl)c4)s3)ccc2C1=O :: 292 to 295 °C
CN1Cc2cc(-c3ccc(-c4cncc(NS(=O)(=O)c5ccc(Cl)cc5Cl)c4)s3)ccc2C1=O :: 282 to 285 °C

Prompt line: For the compound shown here, CN1Cc2cc(-c3ccc(-c4cncc(NS(=O)(=O)c5ccc(Br)cc5)c4)s3)ccc2C1=O , give the reported melting point.
Response line: 276 to 279 °C

Prompt line: Entry to check: CC(=O)c1cn(C)c2ccc(-c3ccc(-c4cncc(NS(=O)(=O)c5ccc(F)cc5F)c4)s3)cc12
Response line: 241 to 244 °C

Prompt line: Entry to check: CN1Cc2cc(-c3ccc(-c4cnc(N)c(S(=O)(=O)Nc5ccc(F)cc5F)c4)s3)ccc2C1=O
Response line: 278 to 279 °C

Prompt line: Entry to check: CCCCn1cc(C(C)=O)c2cc(-c3ccc(-c4cncc(NS(=O)(=O)c5ccc(F)cc5F)c4)s3)ccc21
Response line: 188 to 191 °C

Prompt line: Entry to check: Cc1ccc(NS(=O)(=O)c2ccc(F)cc2F)cc1-c1ccc(-c2ccc3c(c2)CN(C)C3=O)s1
Response line: 268 to 271 °C

Prompt line: Entry to check: CN1Cc2cc(-c3ccc(-c4ccc(NS(=O)(=O)c5ccc(F)cc5F)nc4)s3)ccc2C1=O
Response line: 269 to 272 °C

Prompt line: Entry to check: O=C1NCCc2cc(-c3ccc(-c4cncc(NS(=O)(=O)c5ccc(F)cc5F)c4)s3)ccc21
Response line: 267 to 270 °C

Prompt line: Entry to check: COc1ncc(-c2ccc(-c3ccc4c(c3)CNC4=O)s2)cc1NS(=O)(=O)c1ccc(F)cc1F
Response line: 266 to 270 °C

Prompt line: Entry to check: Cc1cccc(S(=O)(=O)Nc2cncc(-c3ccc(-c4ccc5c(c4)CN(C)C5=O)s3)c2)c1
Response line: 281 to 284 °C

Prompt line: Entry to check: CN1Cc2cc(-c3ccc(-c4ccc(OC(F)(F)F)c(NS(=O)(=O)c5ccccn5)c4)s3)ccc2C1=O
Response line: 200 to 201 °C
